target: CLK2 kinase (Homo sapiens, UniProt P49760); assay: CLK2 kinase activity assay (Z-lyte FRET); conditions: Z-lyte Ser/Thr 6 peptide, 60 μM ATP, 1 h at room temperature
Sequence (P49760 whole entry): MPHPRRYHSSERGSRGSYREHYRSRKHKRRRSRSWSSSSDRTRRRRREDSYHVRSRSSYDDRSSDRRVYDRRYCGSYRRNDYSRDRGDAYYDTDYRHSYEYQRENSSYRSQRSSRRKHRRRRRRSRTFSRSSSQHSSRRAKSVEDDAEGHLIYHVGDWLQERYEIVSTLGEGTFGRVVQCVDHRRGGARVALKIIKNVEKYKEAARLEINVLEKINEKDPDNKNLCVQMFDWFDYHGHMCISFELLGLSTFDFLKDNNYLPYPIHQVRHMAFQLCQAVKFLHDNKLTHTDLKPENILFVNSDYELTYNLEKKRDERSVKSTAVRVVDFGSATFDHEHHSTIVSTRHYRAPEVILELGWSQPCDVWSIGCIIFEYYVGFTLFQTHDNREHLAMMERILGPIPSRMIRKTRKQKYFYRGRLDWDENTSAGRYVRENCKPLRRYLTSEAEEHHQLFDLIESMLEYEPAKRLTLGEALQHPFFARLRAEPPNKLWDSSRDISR
pEC50: −log10 of the molar value.
experimental-readout: pEC50

Worked examples, 5 compounds total:
chemical-string: O=C(Nc1cncc(-c2cnc3[nH]nc(-c4cc5c(N6CCCCC6)nccc5[nH]4)c3c2)c1)C1CC1
pEC50: 8.10
//
chemical-string: c1cc2[nH]c(-c3n[nH]c4ccc(-c5cncc(CN6CCCCC6)c5)cc34)cc2cn1
pEC50: 8.52
//
chemical-string: CN1Cc2ccc(C(=O)Nc3cc4cc(-c5cncn5C)ccc4cn3)cc2C1
pEC50: 8.70
//
chemical-string: CN(C)Cc1cncc(-c2ccc3[nH]nc(-c4cc5c(-c6ccccc6F)cncc5[nH]4)c3n2)c1
pEC50: 8.70
//
chemical-string: CCC(=O)Nc1cncc(-c2ccc3[nH]nc(-c4nc5c(N6CCCCC6)cncc5[nH]4)c3n2)c1
pEC50: 7.92

P: C[C@@H]1CN(c2ccc(NC(=O)c3n[nH]c4ccc(-c5cncc(CN6CCCCC6)c5)cc34)cn2)C[C@H](C)O1
Q: CN(C)CCNc1cc(F)cc(-c2cncc3[nH]c(-c4n[nH]c5ncc(-c6cccnc6)cc45)nc23)c1
R: CCCCC(=O)Nc1cncc(-c2ccc3[nH]nc(-c4cc5c(-c6ccoc6)cncc5[nH]4)c3c2)c1
S: CCC(=O)Nc1cncc(-c2ccc3[nH]nc(-c4cc5c(-c6cccc(F)c6)cncc5[nH]4)c3c2)c1
Enquiry: Hey, quick one: sort these by pEC50, low to high? List the labels in the requested order.
Return: S, Q, R, P
(S: 7.82, Q: 8.30, R: 8.52, P: 9.00)

a: CCC(=O)Nc1cncc(-c2ccc3[nH]nc(-c4cc5c(-c6cccc(F)c6)nccc5[nH]4)c3c2)c1
b: Nc1cncc(-c2cc3c(-c4cc5c(-c6ccccc6F)nccc5[nH]4)n[nH]c3cn2)c1
Enquiry: Which record shows the lower pEC50: the first, a , or the second, b ? Use the label to indicate which entry you chose.
Return: a

1: c1cnc2[nH]c(-c3n[nH]c4ccc(-c5cncc(CN6CCCCC6)c5)cc34)cc2c1
2: CC(C)(C)C(=O)Nc1cncc(-c2cnc3[nH]nc(-c4nc5c(-c6ccoc6)cncc5[nH]4)c3c2)c1
Enquiry: For 1 and 2 , which recorded pEC50 is lower? Please respond with the label that marks your chosen entry.
Return: 2

###

test system: primary human mesenchymal stem cells (hMSCs); experiment: Chondrogenesis screening using primary human mesenchymal stem cells; assay type: cell-based; settings: Homo sapiens, Mesenchymal stem cells, hMSC chondrogenesis; concentration required to induce 50% levels of chondrogenesis with TGF-β3 as positive control; read-out: Conc (nM) of 50% TGF-β3 activity
experimental-readout: EC50 (nM)

1: CC(C)Nc1cncc(-c2ccc3[nH]nc(-c4nc5c(-c6cccnc6)nccc5[nH]4)c3n2)c1 [compound 193]
2: CC(C)Nc1cncc(-c2ccc3[nH]nc(-c4nc5c(-c6cccnc6)cncc5[nH]4)c3n2)c1 [compound 194]
3: CN1CCN(c2cccc3[nH]c(-c4n[nH]c5ncc(-c6cncc(CN7CCCCC7)c6)cc45)cc23)CC1 [compound 494]
4: O=C(Nc1ccc(CN2CCCC2)cc1)c1n[nH]cc1/C=C/c1cccnc1 [compound 17]
Enquiry: Ranking criterion: EC50, increasing numeric value. Items: as listed above. Answer with the labels in sequence, matching the requested order.
Return: 1, 2, 3, 4
(1: 10 nM, 2: 30 nM, 3: 300 nM, 4: 900 nM)

###

target: CLK3 kinase (Homo sapiens); assay: CLK3 kinase activity assay (Z-lyte FRET); conditions: Z-lyte Ser/Thr 18 peptide, 156 μM ATP, 1 h at room temperature;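 further: kinase activity read as coumarin/fluorescein emission ratio by FRET, unphosphorylated peptide as 0% and phosphorylated peptide as 100% control, values from non-linear regression of dose-response curves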
Sequence (P49761 whole entry): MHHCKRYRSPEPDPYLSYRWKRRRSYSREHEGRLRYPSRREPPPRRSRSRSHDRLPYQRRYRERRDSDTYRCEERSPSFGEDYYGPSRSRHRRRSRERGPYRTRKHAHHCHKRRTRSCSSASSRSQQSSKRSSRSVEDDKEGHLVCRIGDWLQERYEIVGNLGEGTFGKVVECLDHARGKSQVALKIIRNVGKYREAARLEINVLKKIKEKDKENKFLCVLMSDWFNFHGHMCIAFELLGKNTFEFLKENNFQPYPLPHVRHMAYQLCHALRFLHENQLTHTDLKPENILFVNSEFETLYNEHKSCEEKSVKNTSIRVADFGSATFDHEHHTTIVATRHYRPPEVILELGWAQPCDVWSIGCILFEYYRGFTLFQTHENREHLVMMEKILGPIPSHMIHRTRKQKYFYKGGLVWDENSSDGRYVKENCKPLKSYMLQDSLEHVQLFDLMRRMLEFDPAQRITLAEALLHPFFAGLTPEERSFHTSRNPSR
experimental-readout: EC50 (µM)

For orientation, consider the following solved cases.
molecule: Fc1cccc(-c2nccc3[nH]c(-c4n[nH]c5ccc(-c6cccnc6)nc45)cc23)c1 [compound 301]
units: µM
reported-result: 0.105
//
molecule: CN1CCN(c2nccc3[nH]c(-c4n[nH]cc4/C=C/c4cncc(F)c4)nc23)CC1 [compound 25]
units: µM
reported-result: 0.326
//
molecule: COc1cccc(-c2nccc3[nH]c(-c4n[nH]c5ccc(-c6cccnc6)nc45)nc23)c1 [compound 295]
units: µM
reported-result: 0.096
//
molecule: c1cncc(-c2cc3c(-c4cc5cnccc5[nH]4)n[nH]c3cn2)c1 [compound 412]
units: µM
reported-result: 0.088
//
molecule: O=C(Nc1cncc(-c2ccc3[nH]nc(-c4cc5ccncc5[nH]4)c3n2)c1)C1CCCC1 [compound 430]
units: µM
reported-result: 0.147

a: Cc1cn(-c2cncc3[nH]c(-c4n[nH]c5ccc(-c6cncc(NC(=O)C(C)(C)C)c6)nc45)nc23)cn1 [compound 222]
b: Fc1cccc(-c2cncc3[nH]c(-c4n[nH]c5ncc(-c6cccnc6)cc45)cc23)c1 [compound 300]
Enquiry: Smaller EC50 value, a vs b ? Choose, then provide that item's label.
Return: b

I: CCC1(N)CN(c2cncc(-c3ccc4[nH]nc(C)c4c3)n2)C1 [compound 37]
II: O=C(Nc1cncc(-c2ccc3[nH]nc(-c4cc5cnccc5[nH]4)c3c2)c1)C1CCC1 [compound 428]
Enquiry: Two entries are listed, I and II . Which one carries the higher EC50? To answer, give the label that identifies your chosen option.
Return: I

A: Nc1cncc(-c2cnc3[nH]nc(-c4cc5c(-c6ccccc6F)nccc5[nH]4)c3c2)c1 [compound 321]
B: CC(C)n1cc(C(=O)Nc2cc3cc(-c4cncc(NC5CCN(C)CC5)n4)ncc3cn2)cn1 [compound 614]
Enquiry: Given the listed records, identify the one among A and B with higher EC50. // respond with label for picked entry
Return: B

I: Cn1cc(-c2ccc3cnc(NC(=O)c4ccc5cnccc5c4)cc3c2)cn1 [compound 560]
II: CC(C)Nc1cncc(-c2cnc3[nH]nc(-c4nc5c(-c6cc(F)cc(NCCN(C)C)c6)nccc5[nH]4)c3c2)c1 [compound 283]
III: CC(C)(C)C(=O)Nc1cncc(-c2cc3c(-c4nc5c(-c6ccc(F)s6)nccc5[nH]4)n[nH]c3cn2)c1 [compound 263]
Enquiry: Rank the items in ascending order with respect to EC50. List the labels, following the order given in the request.
Return: II, I, III

###

target: CLK2 kinase (Homo sapiens, UniProt P49760); assay: CLK2 kinase activity assay (Z-lyte FRET); conditions: Z-lyte Ser/Thr 6 peptide, 60 μM ATP, 1 h at room temperature;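 further: FRET read-out as coumarin to fluorescein emission ratio, unphosphorylated peptide as 0% and phosphorylated peptide as 100% controls, duplicate reactions, non-linear regression fit of dose-response curves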
experimental-readout: EC50 (nM)

molecule: CCC1(N)CN(c2cncc(-c3ccc4[nH]nc(C)c4c3)n2)C1 [compound 37]
reported-result: 43

molecule: CC(C)(C)CC(=O)Nc1cncc(-c2ccc3[nH]nc(-c4nc5ccncc5[nH]4)c3c2)c1 [compound 202]
reported-result: 2

molecule: CCNCc1cncc(-c2ccc3[nH]nc(-c4cc5cnccc5[nH]4)c3c2)c1 [compound 439]
reported-result: 2

molecule: Nc1cncc(-c2cc3c(-c4cc5c(-c6ccccc6F)ccnc5[nH]4)n[nH]c3cn2)c1 [compound 325]
reported-result: 4

molecule: O=C(Nc1cccnc1)c1n[nH]c2cnc(-c3cncc(CN4CCCCC4)c3)cc12 [compound 118]
reported-result: 8

molecule: Cn1ncc(-c2ccc3cnc(NC(=O)[C@H]4CC[C@H](CO)CC4)cc3c2)c1CN1CCCCC1 [compound 570]
reported-result: 9

I: FC1(F)CCN(Cc2cncc(-c3cnc4[nH]nc(-c5cc6c(-c7ccoc7)cccc6[nH]5)c4c3)c2)C1 [compound 503]
II: Cn1cc(-c2cc3c(C(=O)Nc4ccc5c(c4)CNC5)n[nH]c3cc2F)cn1 [compound 112]
Enquiry: Between I and II , which one has the lower reported EC50 value? Could you answer with the label of the item you picked?
Return: II
(II: 1 nM, I: 10 nM)

P: O=C(Nc1cccnc1)Nc1c[nH]nc1C(=O)Nc1ccc(C(F)(F)F)nc1 [compound 16]
Q: Fc1ccc(-c2cccc3[nH]c(-c4n[nH]c5ncc(-c6cncc(CN7CCCCC7)c6)cc45)cc23)cc1 [compound 634]
R: CC(C)Nc1cncc(-c2cnc3[nH]nc(-c4cc5c(-c6cccnc6)ccnc5[nH]4)c3c2)c1 [compound 362]
Enquiry: Put the entries in order of EC50, starting with the largest number. // rank by listing labels in the order requested
Return: P, Q, R

1: O=C(Nc1cncc(-c2ccc3[nH]nc(-c4nc5c(-c6ccncc6)ccnc5[nH]4)c3n2)c1)C1CCCCC1 [compound 198]
2: CC(C)Nc1cncc(-c2ccc3[nH]nc(-c4nc5c(-c6cc(F)cc(NCCN(C)C)c6)nccc5[nH]4)c3c2)c1 [compound 282]
3: O=C(Cc1ccccc1)Nc1cncc(-c2ccc3[nH]nc(-c4nc5c(-c6cccc(F)c6)cncc5[nH]4)c3c2)c1 [compound 129]
Enquiry: # ascending order, key=EC50 Write out the labels following the order that was asked for.
Return: 2, 1, 3
(2: 4 nM, 1: 11 nM, 3: 53 nM)
